# measurement_description: NCI Yeast Anticancer Drug Screen. Data for the rad50 strain (AID 155);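 also: 0% = growth of vehicle-only cultures of the same strain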
# condition_notes: S. cerevisiae rad50 strain growth inhibition; at 5.0 µM (retest, dose inferred, filed as 0.5)
Compounds without any hit were thinned out: in the full panel of roughly 79,000, 15% have a hit. Activity calls are given as the source filed them. Rule as the data show it: active = growth inhibition above about 70%; inactive = the rest.
Output constraint: value belongs to True = active, False = inactive

Look over these answered cases.
1. COc1ccc2nc3cccc([N+](=O)[O-])c3c(NCCNCCO)c2c1; False
2. O=[N+]([O-])c1ccc(C(c2c[nH]c3ccccc23)c2c[nH]c3ccccc23)cc1; True
3. CC1(c2ccccc2)O[C@@H]2C[C@H]3[C@@H]4CCC5=CC(=O)C=C[C@]5(C)[C@@]4(F)[C@@H](O)C[C@]3(C)[C@]2(C(=O)CO)O1 (some centres undefined); False

Dear all, I need the recorded test outcome for `COc1ccc2nc3cccc([N+](=O)[O-])c3c(NCCCCCC(=O)O)c2c1` , thank you.
True

* * *

# measurement_description: NCI Yeast Anticancer Drug Screen. Data for the rad18 strain (AID 177)
# condition_notes: S. cerevisiae rad18 mutant growth inhibition; at 3.7 µM; hits give high values
Compounds without any hit were thinned out: in the full panel of roughly 79,000, 15% have a hit.
measured_parameter: growth inhibition (%)
Only the number, expressed in %, is required.

1. COC(=N)c1ccc(O)c(C)c1; -1

Give the value of growth inhibition reported for the following: `CC1(C)CC(=O)C(/C=N/c2nc(-c3ccc(Br)cc3)cs2)=C(O)C1`
5

Give the value of growth inhibition reported for the following: `COc1cccc(/C=C2\S/C(=N/Nc3nc(-c4ccc([N+](=O)[O-])cc4)cs3)NC2=O)c1O`
25

Give the value of growth inhibition reported for the following: `O=C(CN(c1ccccc1)c1ccccc1)n1nnc2ccccc21`
14

Give the value of growth inhibition reported for the following: O=C(NCCCCN1CC2CCCC2C1)C(C1CCCCC1)C1CCCCC1 (stereo not drawn)
23

Give the value of growth inhibition reported for the following: `CC(=O)O/N=C1C=C/C(=C(/C#N)c2ccccc2)C=C/1C`
26

Give the value of growth inhibition reported for the following: `CNC(=S)N/N=C(/C)CCC/C(C)=N/NC(=S)NC`
21

Give the value of growth inhibition reported for the following: `O=C(C#Cc1ccccc1)/C=C/c1ccccc1`
4

Give the value of growth inhibition reported for the following: C[C@H](CCC1=NC(C)(C)CO1)C1CCC2[C@@H]3C(O)C[C@@H]4CC(O)CC[C@]4(C)C3CC[C@@]21C (stereo partly drawn)
-6

* * *

# measurement_description: NCI Yeast Anticancer Drug Screen. Data for the wt2 strain (AID 169);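 also: 0% = growth of vehicle-treated yeast cultures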
# condition_notes: S. cerevisiae wt2 strain growth inhibition; at 100.0 µM; hits give high values
Compounds without any hit were thinned out: in the full panel of roughly 79,000, 15% have a hit.
measured_parameter: growth inhibition (%)
Only the number, expressed in %, is required.

A selection of reference data follows.
1. COc1ccccc1/C=C\C(=O)C1COCN1 (stereo not given); 99
2. N#C/C(=C\NC(=S)Nc1ccc(S(N)(=O)=O)cc1)C(=O)c1ccc2ccccc2c1; -1
3. O=C1C(=O)N(c2ccccc2)[C@@]2(c3ccccc3)C(=Nc3ccccc3)OC(c3ccccc3)=C12; 96

Give the value of growth inhibition reported for the following: `CC(C)(Br)C(=O)/C=C/c1ccccc1`
18

Give the value of growth inhibition reported for the following: `O=C(Cc1ccccc1)NNc1nc(NNC(=O)c2ccncc2)nc(Nc2ccc(Cl)cc2)n1`
-2

* * *

# measurement_description: NCI Yeast Anticancer Drug Screen. Data for the rad52 strain (AID 147);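 also: 0% = growth of vehicle-treated control cultures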
# condition_notes: S. cerevisiae rad52 mutant growth inhibition; at 100.0 µM
About 79,000 compounds went through this panel and 15% of them were active in at least one assay; those are over-represented in the sample as a whole. Active and inactive are the calls of the source. Rule as the data show it: active = growth inhibition above about 70%; inactive = the rest.
Output constraint: value belongs to 1 (yes) for active, 0 (no) for inactive

1) Brc1ccc(B2Nc3ccccc3N2)cc1; 0 (no)
2) Cc1cccc(C)c1NC(=O)C(C#N)C1=C(Cl)C(=O)c2ccccc2C1=O (configuration not stated); 1 (yes)
3) CCN(CC)CCC(=O)Nc1ccc2sc3ccccc3c(=O)c2n1; 1 (yes)

From here, focus on the item given below.
Dear all, I need the recorded test outcome for `COc1ccc(C(=O)/C=C\c2ccc(Cl)c(Cl)c2)cc1` , thank you.
0 (no)

* * *

Listed below: growth inhibition values for each entry.
# measurement_description: NCI Yeast Anticancer Drug Screen. Data for the rad50 strain (AID 155);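 also: 0% = growth of vehicle-only cultures of the same strain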
# condition_notes: S. cerevisiae rad50 strain growth inhibition; at 3.7 µM; hits give high values
The panel holds about 79,000 compounds, 15% with a hit somewhere; the sample as a whole holds those more often.
Only the number, expressed in %, is required.

1. O=C1Nc2ccc(Br)cc2C1=Nc1ccc(Cl)cc1; -20
2. S=C1C(=Nc2ccccc2)N(c2ccccc2)/C(=N\c2ccccn2)N1c1ccccc1; -2
3. O=C1c2ccccc2C(=O)c2c(O)c(NCCNCCO)cc(O)c21; -1
4. O=C(C#Cc1ccccc1)/C=C/c1ccccc1; -8
5. O=[N+]([O-])c1ccc2nc(=S)[nH]n2c1; -1

Give the value of growth inhibition reported for the following: `Cc1nc2sc3c(c2c(=O)o1)CCCC3`
2

Give the value of growth inhibition reported for the following: `CCOC(=O)/C(=C/c1cccc(Cl)c1)N(CC)CC`
5

* * *

# measurement_description: NCI Yeast Anticancer Drug Screen. Data for the rad14 strain (AID 159);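 also: 0% = growth of vehicle-treated control cultures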
# condition_notes: S. cerevisiae rad14 strain growth inhibition; at 11.0 µM; hits give high values
This is part of a sample that, as a whole, favours compounds with a hit. Of some 79,000 tested, about 15% had one in any assay.
Listed below: growth inhibition values for each entry.
Only the number, expressed in %, is required.

A selection of reference data follows.
1) O=C(Cc1ccccc1)NNc1nc(NNC(=O)c2ccncc2)nc(Nc2ccc(Cl)cc2)n1; 3
2) CC(C)Cc1ncc(CCCN=C(N)N)[nH]c1=O; 15
3) CN(C)CCNCCCNc1c2ccccc2nc2cccc([N+](=O)[O-])c12; 92

Give the value of growth inhibition reported for the following: `Cn1c(-c2ccc(/C=N\N3CCN(/N=C/c4ccc(-c5c[n+]6ccsc6n5C)cc4)CC3)cc2)c[n+]2ccsc12`
9

Give the value of growth inhibition reported for the following: `CCOC(=O)/C(=C\c1cccc(C)c1)C(C)=O`
38

Give the value of growth inhibition reported for the following: `Nc1cc(Cl)ccc1Nc1ccccc1`
-14

Give the value of growth inhibition reported for the following: `Cc1c2cc[n+](CCO)cc2c(C)c2c1[nH]c1ccc(O)cc12`
3

Give the value of growth inhibition reported for the following: `CN(C)/C(=N/C(=S)Nc1ccccc1)SCc1ccccc1`
-2

Give the value of growth inhibition reported for the following: `Cc1ccc([N+](=O)[O-])c2c(NCCC[N+](C)(C)[O-])c3ccccc3nc12`
43

Give the value of growth inhibition reported for the following: `Oc1ccc(N=Nc2ccc(Cl)cc2)cc1`
60

Give the value of growth inhibition reported for the following: `CC(C)OP(=O)(OC(C)C)/C(Cl)=N/Nc1ccc([N+](=O)[O-])cc1`
24

* * *

# measurement_description: NCI Yeast Anticancer Drug Screen. Data for the bub3 strain (AID 167)
# condition_notes: S. cerevisiae bub3 mutant strain, at 33.0 µM, hits give high values
About 79,000 compounds went through this panel and 15% of them were active in at least one assay; those are over-represented in the sample as a whole.
measured_parameter: growth inhibition (%)
Only the number, expressed in %, is required.

A selection of reference data follows.
1. CCC[CH2][Sn]([CH2]CCC)([CH2]CCC)/[C](=C/[Si](C)(C)c1ccccc1)c1ccc2c(c1)OCO2; 89
2. C[n+]1c(-c2ccc(/C=N/NC(=O)c3ccc(C(=O)N/N=C/c4ccc(-c5cn6ccccc6[n+]5C)cc4)cc3)cc2)cn2ccccc21; 70

Give the value of growth inhibition reported for the following: N#CC1OB(O)c2ccccc21 (configuration not stated)
-10

Give the value of growth inhibition reported for the following: `CC(C)S(=O)(=O)/C=C\S(=O)(=O)C(C)C`
52

Give the value of growth inhibition reported for the following: `CC(C)(N=Nc1ccc(Cl)cc1)[N+](=O)[O-]`
97

* * *

# measurement_description: NCI Yeast Anticancer Drug Screen. Data for the sgs1 strain (AID 173);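 also: 0% = growth of vehicle-only control cultures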
# condition_notes: S. cerevisiae sgs1 mutant, at 3.7 µM, hits give high values
About 79,000 compounds went through this panel and 15% of them were active in at least one assay; those are over-represented in the sample as a whole.
measured_parameter: growth inhibition (%)
Only the number, expressed in %, is required.

A selection of reference data follows.
1) COc1cc(C2C3=C(COC3=O)Oc3cc4c(cc32)OCO4)cc(OC)c1O (centres undefined); 10
2) c1c[nH]c(CN2CCN(Cc3ncc[nH]3)CC2)n1; 17
3) O=C1c2ccccc2C(=O)c2sc(Nc3ccccc3Cl)nc21; 16

Give the value of growth inhibition reported for the following: `CC(C)NCCCNc1c2ccccc2nc2cccc([N+](=O)[O-])c12`
94
